# PROTOCOL_DESCRIPTION: Cytotoxicity against mouse Peritoneal exudate cell assessed as reduction in cell viability by measuring total mitochondrial respiration incubated for 72 hrs by MTT assay
# Assay type: toxicity, cell-based
# CONDITIONS: peritoneal exudate cells
We begin with a simple list: items and their reported IC50 at 72 h.
Please respond with the number in µM and leave the unit unwritten.

Sample `COc1ccc(-c2sc3cc(OC)ccc3c2C(=O)c2ccc(OCc3ccnc(-c4ccccn4)c3)cc2)cc1` — what was its IC50 at 72 h?
15.4

Field: next molecule
Sample `O=C(c1ccc(OCCN2CCCCC2)cc1)c1c(-c2ccc(O)cc2)sc2cc(O)ccc12` — what was its IC50 at 72 h?
18.3

###

# PROTOCOL_DESCRIPTION: Selectivity index, ratio of IC50 for cytotoxicity against mouse Peritoneal exudate cell assessed as reduction in cell viability by measuring total mitochondrial respiration to IC50 for antiproliferative activity against human MDA-MB-231 cells assessed as reduction in cell viability by measuring total mitochondrial respiration
# Format: toxicity, cell-based
# CONDITIONS: mouse peritoneal exudate cells versus human MDA-MB-231 cells, read-out: Ratio IC50
ENDPOINT_LABEL: selectivity ratio
Field format: numeric only.

Sample `COc1ccc(-c2sc3cc(OC)ccc3c2C(=O)c2ccc(OCc3ccnc(-c4ccccn4)c3)cc2)cc1` — what was its selectivity ratio?
9.5

###

We begin with a simple list: items and their reported IC50 at 72 h.
# PROTOCOL_DESCRIPTION: Cytotoxicity against mouse Peritoneal exudate cell assessed as reduction in cell viability by measuring number of adherent cells incubated for 72 hrs by crystal violet staining based assay
# Assay type: toxicity
Please respond with the number in µM and leave the unit unwritten.

Sample O=C(c1ccc(OCCN2CCCCC2)cc1)c1c(-c2ccc(O)cc2)sc2cc(O)ccc12 [RALOXIFENE] — what was its IC50 at 72 h?
20.4

Field: next compound
Sample `COc1ccc(-c2sc3cc(OC)ccc3c2C(=O)c2ccc(OCc3ccnc(-c4ccccn4)c3)cc2)cc1` — what was its IC50 at 72 h?
18.9

###

We begin with a simple list: items and their reported pIC50.
# Tested on: MCF7
# PROTOCOL_DESCRIPTION: Antiproliferative activity against human MCF7 cells assessed as reduction in cell viability by measuring total mitochondrial respiration incubated for 72 hrs by MTT assay
# Assay type: functional, cell-based
# CONDITIONS: MCF7, 72 h
In simple prose, pIC50 is minus the logarithm base ten of a concentration in moles per litre.

Sample `COc1ccc(-c2sc3cc(OC)ccc3c2C(=O)c2ccc(OCc3ccnc(-c4ccccn4)c3)cc2)cc1` — what was its pIC50?
5.67

Do the same for O=C(c1ccc(OCCN2CCCCC2)cc1)c1c(-c2ccc(O)cc2)sc2cc(O)ccc12 [RALOXIFENE] please
4.77

###

# System: MDA-MB-361
# PROTOCOL_DESCRIPTION: Antiproliferative activity against human MDA-MB-361 cells assessed as reduction in cell viability by measuring total mitochondrial respiration incubated for 72 hrs by MTT assay
# Format: functional, cell-based
# CONDITIONS: MDA-MB-361, 72 h
We begin with a simple list: items and their reported IC50.
Please respond with the number in µM and leave the unit unwritten.

Sample `O=C(c1ccc(OCCN2CCCCC2)cc1)c1c(-c2ccc(O)cc2)sc2cc(O)ccc12` — what was its IC50?
22.2

Next:
Sample `COc1ccc(-c2sc3cc(OC)ccc3c2C(=O)c2ccc(OCc3ccnc(-c4ccccn4)c3)cc2)cc1` — what was its IC50?
6.3
